Assignment: determine reported AUC(0-t) for the given molecules.
experiment description: In vivo pharmacokinetic and bioavailability experiments of rats
Design: species or system SD rats
assay context: Sprague-Dawley, rat, plasma; SD rats, iv, 5 mg/kg single dose
Give bare numbers, in ng·h/mL.

Consider the worked cases shown below.
molecule	unit info	recorded result
CCc1ccc2c(c1)c(=O)c(C(=O)Nc1ccc(Oc3ncnc4cc(OCCCN5CCOCC5)c(OC)cc34)c(F)c1)c(C)n2C	ng·h/mL	43800
COc1cc2ncnc(Oc3ccc(NC(=O)c4cn5c6c(c(N7CCC(O)CC7)c(F)cc6c4=O)CCC5C)cc3F)c2cc1OC (stereo not shown)	ng·h/mL	20300
CCc1ccc2c(c1)c(=O)c(C(=O)Nc1ccc(Oc3ncnc4cc(OC)c(OC)cc34)c(F)c1)c(C)n2C	ng·h/mL	30500

Consider the additional molecule presented here.
Form: molecule = CCc1ccc2c(c1)c(=O)c(C(=O)Nc1ccc(Oc3ncnc4cc(OCCN5CCCC5)c(OC)cc34)c(F)c1)c(C)n2C ; AUC(0-t) = 28400

---

experiment description: In vivo pharmacokinetic and bioavailability experiments of rats
Design: species or system SD rats
assay context: Sprague-Dawley, rat, plasma; SD rats, iv, 5 mg/kg single dose
measured property: AUC(0-inf)
Reply with the number and its unit after it.

Consider the worked cases shown below.
molecule	measured property	recorded result
CCc1ccc2c(c1)c(=O)c(C(=O)Nc1ccc(Oc3ncnc4cc(OCCN(C)C)c(OC)cc34)c(F)c1)c(C)n2C [GDL5000128]	AUC(0-inf)	11.6 µg·h/mL
CCc1ccc2c(c1)c(=O)c(C(=O)Nc1ccc(Oc3ncnc4cc(OC)c(OC)cc34)c(F)c1)c(C)n2C [TL4800191]	AUC(0-inf)	42.3 µg·h/mL

Form: molecule = COc1cc2ncnc(Oc3ccc(NC(=O)c4cn(-c5ccc(F)cc5)c5cc(N6CCNCC6)c(F)cc5c4=O)cc3F)c2cc1OC [TL4830042] ; AUC(0-inf) = 15.2 µg·h/mL

---

Assignment: determine reported pIC50 for the given compounds.
Sequence of the target: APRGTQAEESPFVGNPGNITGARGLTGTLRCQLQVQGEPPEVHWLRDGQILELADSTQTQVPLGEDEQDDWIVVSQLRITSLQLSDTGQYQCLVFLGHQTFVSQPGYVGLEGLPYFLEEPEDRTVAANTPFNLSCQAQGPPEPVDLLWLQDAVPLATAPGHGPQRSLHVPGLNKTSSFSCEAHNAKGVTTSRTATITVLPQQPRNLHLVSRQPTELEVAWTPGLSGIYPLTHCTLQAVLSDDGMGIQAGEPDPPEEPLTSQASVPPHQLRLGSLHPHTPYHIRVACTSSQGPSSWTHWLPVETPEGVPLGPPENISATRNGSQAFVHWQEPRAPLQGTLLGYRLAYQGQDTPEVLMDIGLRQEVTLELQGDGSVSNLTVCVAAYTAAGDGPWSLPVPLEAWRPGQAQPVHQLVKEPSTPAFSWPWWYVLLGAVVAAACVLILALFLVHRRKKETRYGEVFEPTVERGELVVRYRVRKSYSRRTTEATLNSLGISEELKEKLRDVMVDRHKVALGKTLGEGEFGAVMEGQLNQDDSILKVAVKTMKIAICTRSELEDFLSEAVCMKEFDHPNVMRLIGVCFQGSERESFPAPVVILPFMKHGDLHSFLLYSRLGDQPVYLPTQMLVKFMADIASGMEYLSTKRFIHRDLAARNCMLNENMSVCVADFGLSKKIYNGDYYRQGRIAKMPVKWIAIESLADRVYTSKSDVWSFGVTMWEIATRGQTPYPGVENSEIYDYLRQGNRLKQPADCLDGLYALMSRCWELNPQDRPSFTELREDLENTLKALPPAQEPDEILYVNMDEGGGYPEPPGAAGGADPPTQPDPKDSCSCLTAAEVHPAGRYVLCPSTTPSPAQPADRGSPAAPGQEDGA
Answers are plain numbers, as −log10 of the molar value.

Consider the worked cases shown below.
compound	recorded result
Cc1c(C(=O)Nc2ccc(Oc3ncnc4[nH]cc(-c5ccccc5)c34)c(F)c2)c(=O)c2cc(C3CC3)ccc2n1C	6.64
CCn1cc(C(=O)Nc2ccc(Oc3ncnc4cc(OC)c(OC)cc34)c(F)c2)c(=O)c2cc(F)c(N3CCNCC3)nc21	7.19
CCc1ccc2c(c1)c(=O)c(C(=O)Nc1ccc(Oc3ccnc(C(N)=O)c3)c(F)c1)c(C)n2C	5.36
Cc1c(C(=O)Nc2ccc(Oc3ccnc4[nH]ccc34)c(F)c2)c(=O)c2cc(Cl)ccc2n1C	5.58
CC1COc2c(N3CCN(C)CC3)c(F)cc3c(=O)c(C(=O)Nc4ccc(Oc5ncnc6[nH]cc(-c7ccccc7)c56)c(F)c4)cn1c23 (stereo not drawn)	6.37

Report pIC50 for each item below.
1. COc1cc2ncnc(Oc3ccc(NC(=O)c4cn5c6c(c(N7CCN(C)CC7)c(F)cc6c4=O)OC[C@@H]5C)cc3F)c2cc1OC
2. COc1cc2ncnc(Oc3ccc(NC(=O)c4cn(C5CC5)c5c(F)c(N6CC(C)NC(C)C6)c(F)c(N)c5c4=O)cc3F)c2cc1OC (stereo not drawn)
3. CC1CCc2c(N3CCC(O)CC3)c(F)cc3c(=O)c(C(=O)Nc4ccc(Oc5ncnc6[nH]cc(-c7ccccc7)c56)c(F)c4)cn1c23 (stereo not drawn)
4. Cc1c(C(=O)Nc2ccc(Oc3ccnc4[nH]nc(-c5ccccc5)c34)c(F)c2)c(=O)c2cc(Cl)ccc2n1C
5. CCc1c(C(=O)Nc2ccc(Oc3ncnc4[nH]cc(-c5ccccc5)c34)c(F)c2)c(=O)c2cc(C)ccc2n1C

Response given:
[5.96, 6.30, 6.20, 6.24, 7.11]
